B1: ETS1 (parent)
chain: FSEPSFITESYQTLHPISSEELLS

# Variants of: B1
# measurementDescription: protein stability index of a GFP-peptide fusion (GPS, HEK-293T) (PSI 1-6); higher = more stable;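 further: lentivirally expressed fusions sorted by FACS into six bins by GFP to DsRed ratio, PSI derived from sequencing read proportions per bin multiplied by bin number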
# conditionSet: c terminus: a fixed tail appended
Give measured protein stability index for each item. Keep answers brief.
Give bare numbers.

FSEPSFITHSYQTLHPISSEELLS
2
FSEPSFTTESYQTLHPISSEELLS
3.29
FSEPSFITESYQTLQPISSEELLS
2.29
FSEPSFITESYQTLHPISSEELLF
1.65
FSEPSFITESYQTLHPIQSEELLS
2.3
FSEPSFITESYQTLKPISSEELLS
2.33
FSEPAFITESYQTLHPISSEELLS
2.07
FSEPSFITESYQTRHPISSEELLS
2.07
FSEPSFITESFQTLHPISSEELLS
1.73

Return value of protein stability index for input FSEPSFITESYQTLHPISSEELYS , no commentary.
1.78
